# measurementProtocol: Half life of compound in pre-heated DMEM at 200 uM at 37 degC by RP-HPLC analysis
# Format: physicochemical
Give half-life at 200 µM for every item shown.
Give bare numbers, in h.

// known answers, use as guide
COc1cccc2c1C(=O)c1c(O)c3c(c(O)c1C2=O)C[C@@](O)(C(=O)COC(=O)c1ccc(C(N)=S)cc1)C[C@@H]3O[C@H]1C[C@H](N)[C@H](O)[C@H](C)O1.Cl : 3.4
C=CCSSCCC(=O)OCC(=O)[C@]1(O)Cc2c(O)c3c(c(O)c2[C@@H](O[C@H]2C[C@H](N)[C@H](O)[C@H](C)O2)C1)C(=O)c1c(OC)cccc1C3=O.Cl : 5.6

For each of the items listed, what is its half-life at 200 µM?
1. COc1cccc2c1C(=O)c1c(O)c3c(c(O)c1C2=O)C[C@@](O)(C(=O)COC(=O)c1ccc(-c2cssc2=S)cc1)C[C@@H]3O[C@H]1C[C@H](N)[C@H](O)[C@H](C)O1.Cl
2. COc1cccc2c1C(=O)c1c(O)c3c(c(O)c1C2=O)C[C@@](O)(C(=O)COC(=O)c1csc(=S)s1)C[C@@H]3O[C@H]1C[C@H](N)[C@H](O)[C@H](C)O1.Cl
3. COc1cccc2c1C(=O)c1c(O)c3c(c(O)c1C2=O)C[C@@](O)(C(=O)COC(=O)COc1ccc(-c2cc(=S)ss2)cc1)C[C@@H]3O[C@H]1C[C@H](N)[C@H](O)[C@H](C)O1.Cl

[21.5, 0.283, 0.267]

====

# System: U2OS
# measurementProtocol: Drug uptake in human U2OS cells at 5 uM incubated for 24 hrs by fluorimetrical analysis
# Type: ADME, cell-based
reportedProperty: Drug uptake

COc1cccc2c1C(=O)c1c(O)c3c(c(O)c1C2=O)C[C@@](O)(C(=O)COC(=O)c1ccc(-c2ssc(=S)c2-c2ccccc2)cc1)C[C@@H]3O[C@H]1C[C@H](N)[C@H](O)[C@H](C)O1.Cl : Active
C=CCSSCCC(=O)OCC(=O)[C@]1(O)Cc2c(O)c3c(c(O)c2[C@@H](O[C@H]2C[C@H](N)[C@H](O)[C@H](C)O2)C1)C(=O)c1c(OC)cccc1C3=O.Cl : Active
COc1cccc2c1C(=O)c1c(O)c3c(c(O)c1C2=O)C[C@@](O)(C(=O)COC(=O)c1ccc(-c2cssc2=S)cc1)C[C@@H]3O[C@H]1C[C@H](N)[C@H](O)[C@H](C)O1.Cl : Active
COc1cccc2c1C(=O)c1c(O)c3c(c(O)c1C2=O)C[C@@](O)(C(=O)COC(=O)c1ccc(C(N)=S)cc1)C[C@@H]3O[C@H]1C[C@H](N)[C@H](O)[C@H](C)O1.Cl : Active

====

# System: Serum
# measurementProtocol: Induction of H2S release from compound in human serum at 100 uM incubated for 1 to 24 hrs using DNS-Az by fluorimetric assay-based HPLC analysis
# Format: functional
Calls of active or inactive are those of the source. The rule behind the calls is not given here.
Your answer must be one of the following: active, inactive

Illustrative cases are given below, each with its answer.
COc1cccc2c1C(=O)c1c(O)c3c(c(O)c1C2=O)C[C@@](O)(C(=O)COC(=O)c1ccc(-c2cssc2=S)cc1)C[C@@H]3O[C@H]1C[C@H](N)[C@H](O)[C@H](C)O1.Cl : active
C=CCSSCCC(=O)OCC(=O)[C@]1(O)Cc2c(O)c3c(c(O)c2[C@@H](O[C@H]2C[C@H](N)[C@H](O)[C@H](C)O2)C1)C(=O)c1c(OC)cccc1C3=O.Cl : active
C=CCSCC(NC(C)=O)C(=O)OCC(=O)[C@]1(O)Cc2c(O)c3c(c(O)c2[C@@H](O[C@H]2C[C@H](N)[C@H](O)[C@H](C)O2)C1)C(=O)c1c(OC)cccc1C3=O.Cl (some centres not stated) : inactive
COc1cccc2c1C(=O)c1c(O)c3c(c(O)c1C2=O)C[C@@](O)(C(=O)COC(=O)c1ccc(C(N)=S)cc1)C[C@@H]3O[C@H]1C[C@H](N)[C@H](O)[C@H](C)O1.Cl : active
COc1cccc2c1C(=O)c1c(O)c3c(c(O)c1C2=O)C[C@@](O)(C(=O)COC(=O)COc1ccc(-c2cc(=S)ss2)cc1)C[C@@H]3O[C@H]1C[C@H](N)[C@H](O)[C@H](C)O1.Cl : active

Entry COc1cccc2c1C(=O)c1c(O)c3c(c(O)c1C2=O)C[C@@](O)(C(=O)COC(=O)c1csc(=S)s1)C[C@@H]3O[C@H]1C[C@H](N)[C@H](O)[C@H](C)O1.Cl : call = ?
active

Entry COc1cccc2c1C(=O)c1c(O)c3c(c(O)c1C2=O)C[C@@](O)(C(=O)COC(=O)c1ccc(-c2ssc(=S)c2-c2ccccc2)cc1)C[C@@H]3O[C@H]1C[C@H](N)[C@H](O)[C@H](C)O1.Cl : call = ?
active
